assayed-system: C-Met-Rluc (R. reniformis, UniProt P08581 25-1390)
Sequence (P08581 25-1390): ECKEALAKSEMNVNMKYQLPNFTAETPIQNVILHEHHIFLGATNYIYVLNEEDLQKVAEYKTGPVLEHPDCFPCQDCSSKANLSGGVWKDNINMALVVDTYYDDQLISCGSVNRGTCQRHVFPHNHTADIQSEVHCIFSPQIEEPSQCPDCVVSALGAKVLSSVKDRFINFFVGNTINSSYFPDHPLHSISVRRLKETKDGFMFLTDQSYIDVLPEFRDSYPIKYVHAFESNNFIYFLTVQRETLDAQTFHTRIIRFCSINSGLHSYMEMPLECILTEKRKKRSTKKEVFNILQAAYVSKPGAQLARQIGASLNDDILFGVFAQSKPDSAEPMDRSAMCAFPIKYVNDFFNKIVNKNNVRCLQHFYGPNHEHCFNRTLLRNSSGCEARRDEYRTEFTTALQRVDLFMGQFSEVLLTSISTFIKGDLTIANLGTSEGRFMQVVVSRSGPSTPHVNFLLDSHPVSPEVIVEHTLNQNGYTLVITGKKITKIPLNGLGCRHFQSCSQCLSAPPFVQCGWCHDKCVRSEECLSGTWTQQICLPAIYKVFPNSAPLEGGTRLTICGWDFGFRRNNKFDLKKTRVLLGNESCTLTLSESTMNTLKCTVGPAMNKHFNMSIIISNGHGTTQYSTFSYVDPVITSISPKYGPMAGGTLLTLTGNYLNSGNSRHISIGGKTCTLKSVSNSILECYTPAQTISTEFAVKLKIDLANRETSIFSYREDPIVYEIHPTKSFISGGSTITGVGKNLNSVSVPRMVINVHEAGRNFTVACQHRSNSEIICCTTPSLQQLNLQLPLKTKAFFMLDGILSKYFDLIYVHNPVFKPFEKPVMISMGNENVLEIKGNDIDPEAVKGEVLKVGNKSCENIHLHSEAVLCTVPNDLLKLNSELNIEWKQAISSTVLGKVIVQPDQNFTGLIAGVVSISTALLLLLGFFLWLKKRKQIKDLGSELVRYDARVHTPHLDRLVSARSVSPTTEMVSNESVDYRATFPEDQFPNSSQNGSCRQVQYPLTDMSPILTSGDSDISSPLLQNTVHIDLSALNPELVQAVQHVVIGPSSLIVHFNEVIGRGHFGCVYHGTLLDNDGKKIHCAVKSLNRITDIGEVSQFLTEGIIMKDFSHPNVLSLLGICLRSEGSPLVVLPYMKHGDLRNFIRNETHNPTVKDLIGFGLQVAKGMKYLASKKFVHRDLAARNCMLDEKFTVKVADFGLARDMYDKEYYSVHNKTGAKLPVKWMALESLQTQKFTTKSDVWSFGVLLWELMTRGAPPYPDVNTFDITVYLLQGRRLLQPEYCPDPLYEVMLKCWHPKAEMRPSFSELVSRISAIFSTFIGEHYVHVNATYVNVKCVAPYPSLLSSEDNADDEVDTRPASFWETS
experiment-summary: cell-based or functional assay
Measured inhibition of HGF induced BRET signal, c-Met activation model of individual entries
measurement-name: inhibition of HGF induced BRET signal, c-Met activation model (%)

binder	val
[224G11] [MMCH chim] (antibody, V domains shown) VH: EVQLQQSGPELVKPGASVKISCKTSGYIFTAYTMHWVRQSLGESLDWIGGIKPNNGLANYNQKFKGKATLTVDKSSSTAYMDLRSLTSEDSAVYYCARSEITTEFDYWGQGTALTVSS VL: DIVLTQSPASLAVSLGQRATISCRASESVDSYANSFMHWYQQKPGQPPKLLIYRASNLESGIPARFSGSGSRTDFTLTINPVEADDVATYYCQQSKEDPLTFGSGTKLEMKR	53.2
[224G11] [TH7 Hz1] (antibody, human IgG1, V domains shown) VH: QVQLVQSGAEVKKPGASVKVSCKASGYIFTAYTMHWVRQAPGQGLEWMGWIKPNNGLANYAQKFQGRVTMTRDTSISTAYMELSRLRSDDTAVYYCARSEITTEFDYWGQGTLVTVSS VL: DIVLTQSPDSLAVSLGERATINCKSSESVDSYANSFMHWYQQKPGQPPKLLIYRASTRESGVPDRFSGSGSRTDFTLTISSLQAEDVAVYYCQQSKEDPLTFGGGTKVEIKR	59.9
